Property: inhibition at 100 µM; scope: individual compounds
# testSystem: rat MAO-A (Rattus norvegicus, UniProt P21396)
# Construct: using a crude rat brain mitochondrial suspension as a source of enzyme; from tissue; host or cells: rat brain (crude mitochondrial suspension)
# Sequence (P21396 whole entry): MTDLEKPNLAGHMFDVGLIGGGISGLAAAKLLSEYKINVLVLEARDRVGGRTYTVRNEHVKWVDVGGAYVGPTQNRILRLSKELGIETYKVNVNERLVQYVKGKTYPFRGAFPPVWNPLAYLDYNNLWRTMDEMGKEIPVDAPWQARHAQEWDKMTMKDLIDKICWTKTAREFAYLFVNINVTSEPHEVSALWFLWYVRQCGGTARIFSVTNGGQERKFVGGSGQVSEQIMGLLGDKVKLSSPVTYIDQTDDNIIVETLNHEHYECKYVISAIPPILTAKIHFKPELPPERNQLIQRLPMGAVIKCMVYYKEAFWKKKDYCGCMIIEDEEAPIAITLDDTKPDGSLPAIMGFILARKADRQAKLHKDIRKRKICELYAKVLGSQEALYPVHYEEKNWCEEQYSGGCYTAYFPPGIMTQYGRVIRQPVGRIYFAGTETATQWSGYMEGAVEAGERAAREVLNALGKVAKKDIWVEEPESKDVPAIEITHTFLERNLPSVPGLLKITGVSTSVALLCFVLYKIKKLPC
# procedureDetails: MAO-A inhibition, crude rat brain mitochondrial suspension, serotonin substrate, HPLC-ED
# Type: biochemical
# experimentalSetup: 100 µM compound; serotonin 100 µM as substrate
Respond numerically; units are % and should not be typed.

Look over these answered cases.
Input line: Name the value of inhibition at 100 µM reported for COc1ccc2c(c1)N(C(=O)CN1CCN(CCCc3c[nH]c4ccccc34)CC1)CCO2 [Compound 7f] when tested on rat MAO-A (Rattus norvegicus, UniProt P21396).
Output line: 58

Input line: Tell me its inhibition at 100 µM on rat MAO-A (Rattus norvegicus, UniProt P21396): O=C(CN1CCN(CCCc2c[nH]c3ccc(Br)cc23)CC1)Nc1cc(C(=O)NCCN2CCOCC2)ccc1F [Compound 13f]
Output line: 39

Input line: With rat MAO-A (Rattus norvegicus, UniProt P21396) as the test system, provide measured inhibition at 100 µM for this compound: O=C(CN1CCN(CCCc2c[nH]c3ccc(Br)cc23)CC1)N1CCOc2ccccc21 [Compound 7m]
Output line: 30

Now for the compound whose inhibition at 100 µM we want.
Input line: # assay system rat MAO-A (Rattus norvegicus, UniProt P21396): give inhibition at 100 µM of O=C(CN1CCN(CCCc2c[nH]c3ccccc23)CC1)N1CCOc2ccccc21 [Compound 7a]
Output line: 27

* * *

The reader will find reported pKi values listed item by item below.
# testSystem: SERT (Homo sapiens)
# Construct: purchased Perkin-Elmer (Boston, MA, USA) RBHSTM400UA; host or cells: HEK-293 clonal cell line
# Sequence (P31645 whole entry): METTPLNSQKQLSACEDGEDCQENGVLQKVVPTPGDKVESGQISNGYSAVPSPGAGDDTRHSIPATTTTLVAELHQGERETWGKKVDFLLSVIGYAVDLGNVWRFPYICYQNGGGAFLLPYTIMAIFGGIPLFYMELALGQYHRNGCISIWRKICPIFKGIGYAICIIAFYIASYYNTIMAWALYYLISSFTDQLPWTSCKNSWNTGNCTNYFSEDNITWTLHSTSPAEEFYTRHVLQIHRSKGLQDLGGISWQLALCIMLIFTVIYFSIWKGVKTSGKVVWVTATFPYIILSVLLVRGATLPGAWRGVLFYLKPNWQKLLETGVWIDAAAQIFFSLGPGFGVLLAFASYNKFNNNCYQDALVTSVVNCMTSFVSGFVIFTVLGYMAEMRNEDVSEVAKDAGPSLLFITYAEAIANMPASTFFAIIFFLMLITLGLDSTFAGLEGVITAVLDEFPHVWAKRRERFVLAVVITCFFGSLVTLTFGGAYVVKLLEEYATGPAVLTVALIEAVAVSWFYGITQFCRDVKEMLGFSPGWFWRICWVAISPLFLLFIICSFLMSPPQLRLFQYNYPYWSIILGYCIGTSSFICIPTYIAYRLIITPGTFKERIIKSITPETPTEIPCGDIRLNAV
# procedureDetails: SERT competitive binding assay, [3H]-paroxetine, membranes from HEK-293 clonal cell line overexpressing SERT
# experimentalSetup: 2 nM [3H]-paroxetine, 1 h at 27 °C; mean ± SEM of three experiments, each in triplicate; read-out: Ki SERT
# Experimental: To determine the binding of all compounds at SERT, competitive binding assays were performed according to previously reported procedures with some modifications. […] Control curve was performed with fluoxetine in the same experimental conditions. Non-specific binding was determined with 10 µM fluoxetine. The IC50 and Ki values correspond to the results of three independent experiments, each in triplicate. All data are expressed as the mean ± SEM.
# reply with the number alone; pKi is -log10 of concentration in mol/L

Input line: Please respond with reported pKi (system SERT (Homo sapiens)) for O=C(CN1CCN(CCCc2c[nH]c3ccc(Br)cc23)CC1)N1CCOc2ccccc21 .
Output line: 7.30

Input line: With SERT (Homo sapiens) as the test system, provide measured pKi for this compound: O=C(CN1CCN(CCCc2c[nH]c3ccccc23)CC1)N1CCOc2ccc(Br)cc21
Output line: 7.44

Input line: Quote SERT (Homo sapiens) pKi for entry O=C(CN1CCN(CCCc2c[nH]c3ccc(F)cc23)CC1)N1CCOc2ccc(F)cc21 .
Output line: 8.12

Could you now look at the following compound, please?
Input line: // output pKi; input O=C(CN1CCN(CCCc2c[nH]c3ccc(F)cc23)CC1)Nc1cc(C(=O)NCCN2CCOCC2)ccc1F [Compound 13b] ; system SERT (Homo sapiens)
Output line: 7.62

* * *

# testSystem: SERT (Homo sapiens)
# Construct: purchased Perkin-Elmer (Boston, MA, USA) RBHSTM400UA; host or cells: HEK-293 clonal cell line
# procedureDetails: SERT competitive binding assay, [3H]-paroxetine, membranes from HEK-293 clonal cell line overexpressing SERT
# experimentalSetup: 2 nM [3H]-paroxetine, 1 h at 27 °C; mean ± SEM of three experiments, each in triplicate; read-out: Ki SERT
readoutType: Ki (nM)
Give the number; nM is assumed, so skip it.

Examples from the recorded data:
Input line: Quote Ki reported for O=C(CN1CCN(CCCc2c[nH]c3ccccc23)CC1)Nc1ccc(F)cc1C(=O)NCCN1CCOCC1 [Compound 13l] please.
Output line: 52.2

Input line: Return Ki for the following compound: O=C(CN1CCN(CCCc2c[nH]c3ccc(F)cc23)CC1)N1CCOc2ccccc21 [Compound 7g]
Output line: 9.63

New cases:
Input line: For O=C(CN1CCN(CCCc2c[nH]c3ccccc23)CC1)N1CCOc2ccc(F)cc21 [Compound 7c] , write its Ki.
Output line: 68.8

* * *

melting point values by entry

# annotated cases, reported melting point shown
Input line: Indicate its recorded melting point; the molecule in question is O=C(CN1CCN(CCCc2c[nH]c3ccc(F)cc23)CC1)Nc1ccc(F)c(C(=O)NCCN2CCOCC2)c1 [Compound 13c]
Output line: 91.8 to 93.2 °C

Input line: Dear colleague, please send me the reported melting point for O=C(CN1CCN(CCCc2c[nH]c3ccccc23)CC1)N1CCOc2ccc(Br)cc21 [Compound 7e] when you can.
Output line: 132.7 to 134.1 °C

Input line: Identify measured melting point associated with O=C(CN1CCN(CCCc2c[nH]c3ccccc23)CC1)N1CCOc2ccccc21 [Compound 7a]
Output line: 124.3 to 125.8 °C

Input line: Output melting point of O=C(CN1CCN(CCCc2c[nH]c3ccc(F)cc23)CC1)N1CCOc2ccc(Br)cc21 [Compound 7k]
Output line: 102.8 to 103.9 °C

Input line: // Input: O=C(CN1CCN(CCCc2c[nH]c3ccc(Br)cc23)CC1)N1CCOc2ccc(F)cc21 [Compound 7o] . Output its melting point only.
Output line: 97.2 to 98.8 °C

Input line: Supply melting point value. Item: O=C(CN1CCN(CCCc2c[nH]c3ccc(F)cc23)CC1)N1CCOc2cc(F)ccc21 [Compound 7h]
Output line: 168.1 to 169.9 °C

Input line: Given the molecule O=C(CN1CCN(CCCc2c[nH]c3ccc(Br)cc23)CC1)Nc1ccc(F)cc1C(=O)NCCN1CCOCC1 [Compound 13h] , write its reported melting point.
Output line: 73.8 to 74.7 °C

Input line: Indicate the recorded melting point value for this molecule: COc1ccc2c(c1)N(C(=O)CN1CCN(CCCc3c[nH]c4ccc(F)cc34)CC1)CCO2 [Compound 7l]
Output line: 94.5 to 97.3 °C

Input line: For O=C(CN1CCN(CCCc2c[nH]c3ccc(Br)cc23)CC1)N1CCOc2ccccc21 [Compound 7m] , write its melting point.
Output line: 90.5 to 92.4 °C

Input line: Determine its reported melting point: O=C(CN1CCN(CCCc2c[nH]c3ccc(Br)cc23)CC1)Nc1cc(C(=O)NCCN2CCOCC2)ccc1F [Compound 13f]
Output line: 85.2 to 86.8 °C

Continuing:
Input line: Provide only the value of recorded melting point for O=C(CN1CCN(CCCc2c[nH]c3ccc(F)cc23)CC1)N1CCOc2ccc(F)cc21 [Compound 7i]
Output line: 166.8 to 168.1 °C

Input line: Annotate the molecule O=C(CN1CCN(CCCc2c[nH]c3ccc(Br)cc23)CC1)N1CCOc2cc(F)ccc21 [Compound 7n] with its measured melting point.
Output line: 96.1 to 98.1 °C

Input line: Please give the documented melting point of O=C(CN1CCN(CCCc2c[nH]c3ccccc23)CC1)Nc1ccc(F)c(C(=O)NCCN2CCOCC2)c1 [Compound 13k]
Output line: 69.7 to 71.5 °C

Input line: Give melting point for the following molecule: O=C(CN1CCN(CCCc2c[nH]c3ccc(F)cc23)CC1)N1CCOc2ccc(Cl)cc21 [Compound 7j]
Output line: 120.5 to 122.8 °C

Input line: Give the measured melting point for O=C(CN1CCN(CCCc2c[nH]c3ccccc23)CC1)N1CCOc2ccc(F)cc21 [Compound 7c]
Output line: 123.8 to 125.1 °C

Input line: # return recorded melting point for input O=C(CN1CCN(CCCc2c[nH]c3ccc(F)cc23)CC1)N1CCOc2ccccc21 [Compound 7g]
Output line: 168.4 to 171.3 °C

* * *

# testSystem: rat MAO-A (Rattus norvegicus)
# Construct: using a crude rat brain mitochondrial suspension as a source of enzyme; from tissue; host or cells: rat brain (crude mitochondrial suspension)
# procedureDetails: MAO-A inhibition, crude rat brain mitochondrial suspension, serotonin substrate, HPLC-ED
# Assay type: biochemical
# experimentalSetup: 100 µM compound; serotonin 100 µM as substrate
readoutType: inhibition at 100 µM (%)
The answer is to be given in %; state only the numeric part.

Below, each entry is followed by its recorded inhibition at 100 µM result.
Input line: Note inhibition at 100 µM for the compound shown: O=C(CN1CCN(CCCc2c[nH]c3ccc(Br)cc23)CC1)N1CCOc2cc(F)ccc21
Output line: 23

Input line: Using known records, supply inhibition at 100 µM for O=C(CN1CCN(CCCc2c[nH]c3ccc(Br)cc23)CC1)Nc1cc(F)ccc1C(=O)NCCN1CCOCC1 [Compound 13e]
Output line: 39

Input line: Please supply the value of reported inhibition at 100 µM for the item O=C(CN1CCN(CCCc2c[nH]c3ccccc23)CC1)Nc1ccc(F)cc1C(=O)NCCN1CCOCC1 [Compound 13l]
Output line: 34

Input line: Give recorded inhibition at 100 µM. O=C(CN1CCN(CCCc2c[nH]c3ccc(F)cc23)CC1)N1CCOc2ccccc21
Output line: 41

Input line: Tell me inhibition at 100 µM reported for O=C(CN1CCN(CCCc2c[nH]c3ccc(Br)cc23)CC1)N1CCOc2ccc(F)cc21
Output line: 26

More entries:
Input line: Entry O=C(CN1CCN(CCCc2c[nH]c3ccc(Br)cc23)CC1)Nc1ccc(F)cc1C(=O)NCCN1CCOCC1 [Compound 13h] needs its inhibition at 100 µM filled in; supply it.
Output line: 9.4

Input line: Note down inhibition at 100 µM recorded for O=C(CN1CCN(CCCc2c[nH]c3ccccc23)CC1)N1CCOc2ccc(F)cc21
Output line: 40

Input line: // Input: O=C(CN1CCN(CCCc2c[nH]c3ccc(F)cc23)CC1)Nc1ccc(F)c(C(=O)NCCN2CCOCC2)c1 [Compound 13c] . Output its inhibition at 100 µM only.
Output line: 28

Input line: Check the records and state inhibition at 100 µM for O=C(CN1CCN(CCCc2c[nH]c3ccc(Br)cc23)CC1)Nc1ccc(F)c(C(=O)NCCN2CCOCC2)c1 [Compound 13g]
Output line: 16

Input line: Give me measured inhibition at 100 µM, please, for this compound: O=C(CN1CCN(CCCc2c[nH]c3ccccc23)CC1)N1CCOc2cc(F)ccc21
Output line: 43

// provenance: paper PMC7594025
